target: VIM-2 (Escherichia coli, UniProt Q5U7L7)
metric: IC50 (µM)
State the answer as a number, implicitly in µM.

smiles text	metric	u	numeric value
O=C(N/N=C/c1c2ccccc2cc2ccccc12)c1cc2ccccc2cc1O	IC50	µM	12.3
O=C(N/N=C/c1ccccc1O)c1cc2ccccc2cc1O	IC50	µM	18.2

Known value: VIM-2 (Escherichia coli, UniProt Q5U7L7) IC50 of the molecule CC(C)(C)c1ccc(C(=O)N/N=C/c2c(O)ccc3ccccc23)cc1 equals 9
